Can you tell me T/C for the items I'm about to list?
# Test system: P388 leukemia ip, CD2F1 mice, survival T/C
# RUN_DESCRIPTION: NCI In Vivo Anticancer Drug Screen. Data for tumor model P388 Leukemia (intraperitoneal) in CD2F1 (CDF1) mice
# RECORDED_CONDITIONS: endpoint: median survival time; dose: 100.0 mg/kg/injection; schedule: Q01DX001 (ip); vehicle: saline with Tween-80; higher = longer survival
Inconclusive results and toxic doses are left out.

Ask | Reported T/C, compound COc1ccc(C(O)C2CCCN(c3ccccc3)S2(=O)=O)cc1 (stereo not given) : ____
Reply | 101 % of control

Ask | Need T/C, item CCC(c1ccc(OC)cc1)C(NCC(=O)N/N=C/c1ccc(O)c(OC)c1)c1ccc(OC)cc1 (stereo not given)
Reply | 107 % of control

Ask | Using the record for CCOC(=O)C(C(=O)C(F)(F)C(F)(F)C(F)(F)C(=O)C(C(=O)OCC)=P(c1ccccc1)(c1ccccc1)c1ccccc1)=P(c1ccccc1)(c1ccccc1)c1ccccc1 , report its T/C.
Reply | 108 % of control

Ask | Tell me the measured T/C of Cc1ccc(S(=O)(=O)OC2C(O)CC(=O)C(OC(=O)c3ccccc3)C2OC(=O)c2ccccc2)cc1 (stereo not given) , please.
Reply | 89 % of control

Ask | Can you look up the measured T/C of CC(C)NCc1ccccc1Sc1ccccc1 for me?
Reply | 95 % of control

Ask | Entry CCC(c1ccc(OC)cc1)C(NC(=S)Nc1ccc(Cl)cc1)c1ccc(OC)cc1 (stereo not given) has what T/C?
Reply | 90 % of control

Ask | # query: T/C of entry CCOC(=O)C1=C(N)CCC2(C1)c1ccccc1-c1ccccc12
Reply | 97 % of control

Ask | Need T/C, item Nc1[nH]c(=S)[nH]c(=O)c1N=Nc1ccccc1
Reply | 98 % of control

Ask | So what's the measured T/C for this one? CCCCC/C(=N\Nc1ccc([N+](=O)[O-])cc1[N+](=O)[O-])c1ccccc1
Reply | 95 % of control

Ask | Need T/C of O=C1OCCOCCOCCOC(=O)c2ccccc2SSc2ccccc21 , thanks.
Reply | 90 % of control

Ask | // lookup T/C for CCc1c(CO)c(CO)c(-c2ccccc2)n1CCn1c(CC)c(CO)c(CO)c1-c1ccccc1
Reply | 96 % of control

Ask | Could you share which T/C value was measured for Oc1ccc2ccccc2c1/C=N/c1nc(-c2ccc(Cl)cc2)cs1 ?
Reply | 89 % of control

Ask | What T/C value was documented for this compound, CC(=O)OCC1OC(n2ccc3c(=O)n(C)c(=O)[nH]c32)C(OC(C)=O)C(OC(C)=O)C1OC(C)=O (stereo not given) ?
Reply | 92 % of control

Ask | Param item = CC1(C)C=C2OC(=O)CCC2(C)CC1 (stereo not given) ; retrieve measured T/C.
Reply | 118 % of control

Ask | Entry under review: CC(C)(C)NC(=O)C(Cl)Cl . Reported T/C?
Reply | 100 % of control

Ask | Which T/C value is on record for Clc1ccc(C=Nc2ccc(N=Cc3ccc(Cl)cc3)cc2)cc1 ?
Reply | 90 % of control

Ask | For Cc1ccc(S(=O)(=O)NCCN(CCNS(=O)(=O)c2ccc(C)cc2)S(=O)(=O)c2ccc(C)cc2)cc1 , what is its reported T/C?
Reply | 86 % of control

Ask | Given the entry O=C(O)CSCc1nc2ccccc2[nH]1 , report its measured T/C.
Reply | 95 % of control

Ask | Field request: T/C | item: CN1C(c2ccccc2)C2CCCC(C1c1ccccc1)C21NC(=O)NC1=O (stereo not given)
Reply | 97 % of control

Ask | Return reported T/C; argument: O=C(O)c1nn(Cc2ccc(Br)cc2Br)c2ccccc12
Reply | 114 % of control

Each recorded value in this set is attributed to PubChem BioAssay AID330.
